Target: Aurora kinase A (Homo sapiens, UniProt O14965)
Sequence (O14965 whole entry): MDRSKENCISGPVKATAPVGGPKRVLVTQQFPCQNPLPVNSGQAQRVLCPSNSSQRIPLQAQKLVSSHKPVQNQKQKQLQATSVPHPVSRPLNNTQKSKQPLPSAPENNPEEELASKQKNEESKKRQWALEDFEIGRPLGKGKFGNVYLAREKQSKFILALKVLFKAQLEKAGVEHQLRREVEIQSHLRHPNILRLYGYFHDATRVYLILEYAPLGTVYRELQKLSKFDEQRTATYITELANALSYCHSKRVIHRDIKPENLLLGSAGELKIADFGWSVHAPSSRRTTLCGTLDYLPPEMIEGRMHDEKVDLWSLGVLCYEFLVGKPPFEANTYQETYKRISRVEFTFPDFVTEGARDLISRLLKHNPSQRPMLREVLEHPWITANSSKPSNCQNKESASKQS
endpointName: IC50 (nM)
Number only, in nM; omit the unit.

Worked set:
COc1cc2c(Nc3ccc(-c4nc5ccccc5s4)c(Cl)c3)ncnc2cc1OCCCN1CCN(C)CC1 ... 27
COc1cc2c(Nc3ccc(-c4nc5ccccc5s4)cc3C)ncnc2cc1OCCCN1CCN(C)CC1 ... 340
COc1cc2ncnc(Nc3ccc(-c4nc5ccccc5s4)cc3C)c2cc1OCCCN1CCN(C)CC1 ... 9400
COc1cc2c(Nc3ccc(-c4nc5ccccc5s4)c(C)c3)ncnc2cc1OCCCN1CCN(C)CC1 ... 230
COc1cc2c(Nc3ccc(-c4nc5ccc(Cl)cc5s4)cc3)ncnc2cc1OCCCN1CCN(C)CC1 ... 54
COc1cc2ncnc(Nc3ccc(-c4nc5cc(Cl)ccc5s4)cc3)c2cc1OCCCN1CCN(C)CC1 ... 400
COc1cc2ncnc(Nc3ccc(-c4nc5ccccc5s4)c(OC)c3)c2cc1OCCCN1CCN(C)CC1 ... 1600
COc1cc2ncnc(Nc3ccc(-c4nc5ccccc5s4)cc3F)c2cc1OCCCN1CCN(C)CC1 ... 390

Find the recorded IC50 belonging to COc1cc2ncnc(Nc3ccc(-c4nc5ccccc5s4)c(Cl)c3)c2cc1OCCCN1CCN(C)CC1 and report it. 690

Any idea what IC50 was measured for COc1cc2c(Nc3ccc(-c4nc5ccccc5s4)c(O)c3)ncnc2cc1OCCCN1CCN(C)CC1 ? 91

Need IC50 of COc1cc2ncnc(Nc3ccc(-c4nc5ccccc5s4)c(O)c3)c2cc1OCCCN1CCN(C)CC1 , thanks. 300

---

Collected IC50 values appear next to each entry.
Target: Aurora kinase A (Homo sapiens)
Sequence (O14965 whole entry): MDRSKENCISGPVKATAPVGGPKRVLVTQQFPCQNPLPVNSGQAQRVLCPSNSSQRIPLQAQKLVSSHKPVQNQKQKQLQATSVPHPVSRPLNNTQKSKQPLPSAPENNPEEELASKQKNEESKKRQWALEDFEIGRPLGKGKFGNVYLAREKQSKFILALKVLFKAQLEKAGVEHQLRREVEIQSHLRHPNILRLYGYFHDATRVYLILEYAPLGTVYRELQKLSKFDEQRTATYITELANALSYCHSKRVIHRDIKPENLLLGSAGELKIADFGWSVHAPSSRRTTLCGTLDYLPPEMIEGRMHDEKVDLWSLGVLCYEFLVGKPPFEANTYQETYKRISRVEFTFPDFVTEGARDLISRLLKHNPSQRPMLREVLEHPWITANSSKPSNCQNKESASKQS

COc1cc2ncnc(Nc3ccc(-c4nc5ccccc5s4)cc3O)c2cc1OC ... > 10000 nM
COc1ccc2nc(-c3ccc(Nc4ncnc5cc(OCCCN6CCN(C)CC6)c(OC)cc45)cc3)sc2c1 ... 62 nM
COc1cc2c(Nc3ccc(-c4nc5ccccc5s4)cc3)ncnc2cc1OCCCN1CCN(C)CC1 ... 14 nM
COc1cc(-c2nc3ccccc3s2)ccc1Nc1ncnc2cc(OC)c(OC)cc12 ... > 10000 nM

Switching to the query record.
# lookup: IC50 of COc1cc2c(Nc3ccc(-c4nc5ccccc5s4)cc3O)ncnc2cc1OCCCN1CCN(C)CC1 230 nM
